Provide the reported log10 of IC50 of each item.
biological target: HLA-B*5101 (human); test: competition with 125I probe peptide, purified HLA
For clarity, the numbers are log10 values of IC50 expressed in nM.

### Prompt Any idea what log10 of IC50 was measured for LPTNASLSFL (native HER2/neu peptide from position 65) [Her2/neu.65 (10-mer)] ?
### Response 3.40

### Prompt Any idea what log10 of IC50 was measured for CPSGVKPDLSI (analog peptide) [Her2/neu.600.I11] ?
### Response 2.14

### Prompt Any idea what log10 of IC50 was measured for FPLNNTTPV (analog peptide) [Her2/neu.121.F1] ?
### Response 0.85

### Prompt Any idea what log10 of IC50 was measured for CPLHNQEVTI (analog peptide) [Her2/neu.315.I10] ?
### Response 1.62

### Prompt Any idea what log10 of IC50 was measured for FPTNASLSF (analog peptide) [Her2/neu.65.F1 (9-mer)] ?
### Response 1.93

### Prompt Any idea what log10 of IC50 was measured for WPDSLPDI (analog peptide) [Her2/neu.415.I8] ?
### Response 3.70

### Prompt Any idea what log10 of IC50 was measured for KPDLSYMPI (native HER2/neu peptide from position 605) [Her2/neu.605] ?
### Response 3.40

### Prompt Any idea what log10 of IC50 was measured for FPTNASLSFI (analog peptide) [Her2/neu.65.F1I10] ?
### Response 1.36

### Prompt Any idea what log10 of IC50 was measured for FPTNASLSFL (analog peptide) [Her2/neu.65.F1 (10-mer)] ?
### Response 2.42

### Prompt Any idea what log10 of IC50 was measured for FPLNNTTPI (analog peptide) [Her2/neu.121.F1I9] ?
### Response 1.11

### Prompt Any idea what log10 of IC50 was measured for FPMCKGSRCI (analog peptide) [Her2/neu.196.F1] ?
### Response 2.70

### Prompt Any idea what log10 of IC50 was measured for FPTNASLSI (analog peptide) [Her2/neu.65.F1I9] ?
### Response 0.94

### Prompt Any idea what log10 of IC50 was measured for FPHQALLHTI (analog peptide) [Her2/neu.488.F1I10] ?
### Response 1.28

### Prompt Any idea what log10 of IC50 was measured for FPNPEGRYTI (analog peptide) [Her2/neu.282.F1] ?
### Response 0.97

### Prompt Any idea what log10 of IC50 was measured for FPHQALLHTA (analog peptide) [Her2/neu.488.F1] ?
### Response 3.63

### Prompt Any idea what log10 of IC50 was measured for LPTNASLSF (native HER2/neu peptide from position 65) [Her2/neu.65 (9-mer)] ?
### Response 2.91

### Prompt Any idea what log10 of IC50 was measured for FPSGVKPDI (analog peptide) [Her2/neu.600.F1I9] ?
### Response 2.31

Reference source for all entries: patent US20040018971A1
